# target.or.system: GLP-1 receptor (human (printed as hGLP1R), UniProt P43220 24-463)
# protocol.text: cell-based or functional assay
Starred links: 1 amine or outer side, 2 acyl side, 3 side chain; linkers in the order of their positions; H or OH if unused. Non-standard residues stand in square brackets, D forms with d. Groups on a side chain read outwards from the residue. No end group written: not given here. *: point of attachment. C20 diacid = O=C(O)CCCCCCCCCCCCCCCCCCC(=O)*; C18 diacid = O=C(O)CCCCCCCCCCCCCCCCC(=O)*; γGlu = O=C(O)[C@H](CCC(=O)[*:2])N[*:1]; AEEA = NCCOCCOCC(=O)O; Aib = CC(C)(N)C(=O)O
Returns: string. Value is 1 if measured EC50 hGLP1R 0.5% hP (CreLuc) is below 0.2 nM, and -1 if it is greater than or equal to it.

Check out these entries, answers already filled in.
{"columns": ["binder", "assigned.class"],
 "data": [
  ["Y[Aib]EGTFTSDYSI[Aib]LEKQAQ[Aib]EFVEWLIK([AEEA-AEEA-γGlu-γGlu-γGlu-γGlu-C20 diacid])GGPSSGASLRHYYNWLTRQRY-NH2 (also: TFA salt) [Compound 205]", -1],
  ["Y[Aib]EGTFTSDYSI[Aib]LEKQAQ[Aib]AFVEWLIK([AEEA-AEEA-γGlu-γGlu-γGlu-γGlu-C20 diacid])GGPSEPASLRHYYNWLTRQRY-NH2 (also: TFA salt) [Compound 226]", -1],
  ["Y[Aib]EGTFTSDYSI[Aib]LEKQAQ[Aib]AFVQWLIK([AEEA-AEEA-Glu-Glu-Glu-Glu-C18 diacid])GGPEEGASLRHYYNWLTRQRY-NH2 (also: TFA salt) [Compound 177]", 1],
  ["Y[Aib]EGTFTSDYSI[Aib]LEKQAQ[Aib]AFVQWLIK([γGlu-γGlu-γGlu-γGlu-γGlu-γGlu-C20 diacid])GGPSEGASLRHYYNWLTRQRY-NH2 (also: TFA salt) [Compound 223]", 1],
  ["Y[Aib]EGTFTSDYSI[Aib]LEKQAQ[Aib]EFVQWLIK([γGlu-γGlu-γGlu-γGlu-C20 diacid])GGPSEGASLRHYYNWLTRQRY-NH2 (also: TFA salt) [Compound 194]", -1],
  ["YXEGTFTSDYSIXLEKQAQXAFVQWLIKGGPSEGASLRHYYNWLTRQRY (Aib at 2, 13, 20; K28 side chain carries C20DA-gGlu-gGlu-gGlu-gGlu-gGlu-gGlu-eLys; C-terminal amide) [Compound 220]", 1]
]}

Identify whether the binder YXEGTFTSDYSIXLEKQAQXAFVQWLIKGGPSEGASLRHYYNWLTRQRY (Aib at 2, 13, 20; K28 side chain carries C18DA-E-E-E-E-E (SEQ ID NO: 636); C-terminal amide) [Compound 257] records EC50 hGLP1R 0.5% hP (CreLuc) below 0.2 nM.
1

Identify whether the binder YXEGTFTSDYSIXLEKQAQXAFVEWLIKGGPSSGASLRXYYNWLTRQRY (Aib at 2, 13, 20, 39; K28 side chain carries C20DA-gGlu-gGlu-gGlu-gGlu-gGlu-gGlu-eLys; C-terminal amide) [Compound 182] records EC50 hGLP1R 0.5% hP (CreLuc) below 0.2 nM.
1

Identify whether the binder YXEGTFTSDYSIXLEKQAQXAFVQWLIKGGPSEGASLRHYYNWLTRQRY (Aib at 2, 13, 20; K28 side chain carries C18DA-E-E-E-E-E-E-eLys (SEQ ID NO: 643); C-terminal amide) [Compound 249] records EC50 hGLP1R 0.5% hP (CreLuc) below 0.2 nM.
1
